- target-entity: Beta-3 adrenergic receptor (Homo sapiens)
- Sequence (P13945 whole entry, looked up): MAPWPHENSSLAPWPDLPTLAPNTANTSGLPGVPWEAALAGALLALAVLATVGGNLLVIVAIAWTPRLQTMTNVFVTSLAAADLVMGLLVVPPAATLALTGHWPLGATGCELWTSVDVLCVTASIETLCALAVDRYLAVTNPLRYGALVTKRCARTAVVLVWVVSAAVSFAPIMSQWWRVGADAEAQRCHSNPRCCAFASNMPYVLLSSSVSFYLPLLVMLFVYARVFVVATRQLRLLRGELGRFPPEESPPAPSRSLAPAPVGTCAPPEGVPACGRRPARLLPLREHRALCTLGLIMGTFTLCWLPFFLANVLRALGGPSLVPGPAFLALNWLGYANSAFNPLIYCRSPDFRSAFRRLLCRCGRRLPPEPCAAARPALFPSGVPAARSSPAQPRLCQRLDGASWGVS
- test-name: Adenylyl cyclase activation given as % of the maximal stimulation with isoproterenol in CHO cells expressing recombinant human beta-3 adrenergic receptor
- Assay type: functional, cell-based
Could you please report measured Activation for the items listed next?
Lab book: enter the figure in %, no units written.

query: State its Activation: O=S(=O)(Nc1ccc(CCNC[C@H](O)c2cccnc2)cc1)c1ccc(-c2noc(Cc3ccc4ccccc4c3)n2)cc1
result: 73

query: State its Activation: NC(c1ccc(F)cc1)c1nc(-c2ccc(S(=O)(=O)Nc3ccc(CCNC[C@H](O)c4cccnc4)cc3)cc2)no1 (stereo not given in full)
result: 60

query: State its Activation: O=S(=O)(Nc1ccc(CCNC[C@H](O)c2cccnc2)cc1)c1ccc(-c2noc(Cc3cccc(OC(F)(F)F)c3)n2)cc1
result: 86

query: State its Activation: O=S(=O)(Nc1ccc(CCNC[C@H](O)c2cccnc2)cc1)c1ccc(-c2nc(Cc3ccc(F)cc3)no2)cc1
result: 61

query: State its Activation: O=S(=O)(Nc1ccc(CCNC[C@H](O)c2cccnc2)cc1)c1ccc(-c2nc(COc3ccc(F)cc3)no2)cc1
result: 81

query: State its Activation: O=S(=O)(Nc1ccc(CCNC[C@H](O)c2cccnc2)cc1)c1ccc(-c2noc(Cc3ccc(F)cc3)n2)cc1
result: 74

query: State its Activation: CSc1ccc(Cc2nc(-c3ccc(S(=O)(=O)Nc4ccc(CCNC[C@H](O)c5cccnc5)cc4)cc3)no2)cc1
result: 74

query: State its Activation: O=S(=O)(Nc1ccc(CCNC[C@H](O)c2cccnc2)cc1)c1ccc(-c2noc(Cc3ccc(F)c(F)c3)n2)cc1
result: 61

query: State its Activation: CC(=O)Nc1ccc(Cc2nc(-c3ccc(S(=O)(=O)Nc4ccc(CCNC[C@H](O)c5cccnc5)cc4)cc3)no2)cc1
result: 98

query: State its Activation: O=S(=O)(Nc1ccc(CCNC[C@H](O)c2cccnc2)cc1)c1ccc(-c2nc(Cc3ccc(F)c(F)c3)no2)cc1
result: 75

query: State its Activation: O=S(=O)(Nc1ccc(CCNC[C@H](O)c2cccnc2)cc1)c1ccc(-c2noc(COc3ccccc3O)n2)cc1
result: 71

query: State its Activation: O=S(=O)(Nc1ccc(CCNC[C@H](O)c2cccnc2)cc1)c1ccc(-c2noc(COc3ccc(OC(F)(F)F)cc3)n2)cc1
result: 82

query: State its Activation: O=C(c1ccc(F)cc1)c1nc(-c2ccc(S(=O)(=O)Nc3ccc(CCNC[C@H](O)c4cccnc4)cc3)cc2)no1
result: 87

query: State its Activation: CC(=O)Nc1ccc(OCc2nc(-c3ccc(S(=O)(=O)Nc4ccc(CCNC[C@H](O)c5cccnc5)cc4)cc3)no2)cc1
result: 88

query: State its Activation: O=S(=O)(Nc1ccc(CCNC[C@H](O)c2cccnc2)cc1)c1ccc(-c2noc(COc3ccc4ccccc4c3)n2)cc1
result: 76

query: State its Activation: COc1ccc(OCc2nc(-c3ccc(S(=O)(=O)Nc4ccc(CCNC[C@H](O)c5cccnc5)cc4)cc3)no2)cc1
result: 86

query: State its Activation: CNC(=O)NC(c1ccc(F)cc1)c1nc(-c2ccc(S(=O)(=O)Nc3ccc(CCNC[C@H](O)c4cccnc4)cc3)cc2)no1 (stereo not given in full)
result: 67

query: State its Activation: O=S(=O)(Nc1ccc(CCNC[C@H](O)c2cccnc2)cc1)c1ccc(-c2nc(COc3ccc(F)c(F)c3)no2)cc1
result: 80

query: State its Activation: COC(=O)NC(c1ccc(F)cc1)c1nc(-c2ccc(S(=O)(=O)Nc3ccc(CCNC[C@H](O)c4cccnc4)cc3)cc2)no1 (stereo not given in full)
result: 80

query: State its Activation: O=S(=O)(Nc1ccc(CCNC[C@H](O)c2cccnc2)cc1)c1ccc(-c2noc(Cc3cc(F)c(F)c(F)c3)n2)cc1
result: 87

query: State its Activation: O=S(=O)(Nc1ccc(CCNC[C@H](O)c2cccnc2)cc1)c1ccc(-c2noc(Cc3ccc(OC(F)(F)F)cc3)n2)cc1
result: 90

query: State its Activation: O=S(=O)(Nc1ccc(CCNC[C@H](O)c2cccnc2)cc1)c1ccc(-c2noc(Cc3ccc(C(F)(F)F)cc3)n2)cc1
result: 100

query: State its Activation: O=S(=O)(Nc1ccc(CCNC[C@H](O)c2cccnc2)cc1)c1ccc(-c2noc(C(O)c3ccc(F)cc3)n2)cc1 (stereo not given in full)
result: 56

query: State its Activation: O=S(=O)(Nc1ccc(CCNC[C@H](O)c2cccnc2)cc1)c1ccc(-c2noc(COc3ccc(C4N=NN=N4)cc3)n2)cc1
result: 79

query: State its Activation: CS(=O)(=O)Nc1ccc(Cc2nc(-c3ccc(S(=O)(=O)Nc4ccc(CCNC[C@H](O)c5cccnc5)cc4)cc3)no2)cc1
result: 82

query: State its Activation: O=S(=O)(Nc1ccc(CCNC[C@H](O)c2cccnc2)cc1)c1ccc(-c2noc(COc3ccc(F)c(F)c3)n2)cc1
result: 85

query: State its Activation: O=S(=O)(Nc1ccc(CCNC[C@H](O)c2cccnc2)cc1)c1ccc(-c2noc(Cc3cccc(F)c3)n2)cc1
result: 93

query: State its Activation: O=S(=O)(Nc1ccc(CCNC[C@H](O)c2cccnc2)cc1)c1ccc(-c2noc(Cc3ccc(-c4ccccn4)cc3)n2)cc1
result: 71

query: State its Activation: O=S(=O)(Nc1ccc(CCNC[C@H](O)c2cccnc2)cc1)c1ccc(-c2noc(COc3ccc(F)cc3)n2)cc1
result: 82

query: State its Activation: CS(=O)(=O)NC(c1ccc(F)cc1)c1nc(-c2ccc(S(=O)(=O)Nc3ccc(CCNC[C@H](O)c4cccnc4)cc3)cc2)no1 (stereo not given in full)
result: 81

Origin of the recorded values: ChEMBL document CHEMBL1133209
